tested-on: T1, human GFRα3 expressed with a C-terminal myc-myc-hexahistidine tag (human, UniProt O60609 32-374, biotinylated (sites not given) in ELISA format 2 and in the Octet cross-competition; not in SPR)
T1 construct: also called hGFRα3-mmh; hGFRα3-mmH
assay-comment: Octet cross-competition; biotin-hGFRα3-mmH pre-saturated with first antibody H4H2243N2
test-readout: binding response of second antibody (nm)
Just the number please, in nm, no unit attached.

QUERY: Please give the measured binding response of second antibody (nm) for this binder: H4H2292S (antibody, human IgG4, V domains shown, human IgG4 Fc (H4H)) VH: EVQLVESGGGVVQPGRSLRLSCAASGFTFSSYGMHWVRQAPGKGLEWVSFIWYDGSNKYYADSVKGRFTISRDNSKNTLYLQMNSLTAEDTAVYYCARRGILTGTTAFDIWGQGTMVTVSS VL: DIQMTQSPSSLSASVGDRVTITCRASQSISSYLNWYQQKPGKAPKLLIYAASSLQSGVPSRFSGSGSGTDFTLTIRSLIPEDFATYYCQQTYNTPFTFGPGTKVEIK
RESULT: 1.7
